# assayName: qHTS assay to identify small molecule antagonists of the constitutive androstane receptor (CAR) signaling pathway - cell viability counter screen (AID 1224837); further: nearly all actives have a fitted effect of over 45% in size
# recordedConditions: HepG2-CYP2B6-hCAR viability, CellTiter-Fluor, 23 h, co-treated with 50 nM CITCO; series mostly up to 92.4 µM
Records with an inconclusive call do not appear. Activity calls are given as the source filed them. The call rests on the fitted dose curve; in most records, active means well fitted cell-killing curve with a large enough effect in the repeat runs; inconclusive means weak or mixed curves, or effect the other way; inactive means flat fitted curve, though single readings scatter.
Respond with a class label; see Yes = active, No = inactive

Examples with answers:
CCc1c2c(nc3ccc(OC(=O)N4CCC(N5CCCCC5)CC4)cc13)-c1cc3c(c(=O)n1C2)COC(=O)[C@]3(O)CC ... No
CC1=CC(O)CC(C)(C)C1 (centres undefined) ... No
CC(C)(C)C(=O)O ... No
CCOc1cc(N)c(Cl)cc1C(=O)NCC1CN(Cc2ccc(F)cc2)CCO1 (centres undefined) ... No
CC(CCO)CCc1ccccc1 (centres undefined) ... No

INPUT: // param item: `CC(=O)[C@H]1CC[C@H]2[C@@H]3C=CC4=CC(=O)CC[C@@]4(C)[C@@H]3CC[C@]12C` ; yields the recorded call
OUTPUT: No

INPUT: // param item: `O=C(OCCOCCO)c1ccccc1Nc1cccc(C(F)(F)F)c1` ; yields the recorded call
OUTPUT: No

INPUT: GET /call?item= C/C=C(\C)C(=O)OCCC(C)CCC=C(C)C (centres undefined) returns the recorded outcome of this test.
OUTPUT: No

INPUT: Short answer needed: outcome of this test for `O=S(=O)(c1ccccc1)c1ccc(Cl)cc1` ?
OUTPUT: No

INPUT: Hi, sorry to bother you, what did the test record for `NC(=O)N(O)[C@@H]1C=C[C@H](Oc2cccc(Oc3ccc(F)cc3)c2)C1` ?
OUTPUT: No
